# target system: T1, recombinant rat MASP1 active protease (amino acids 302-704, C-terminal His Tag) (rat, UniProt Q8CHN8 302-704)
# T1 sequence: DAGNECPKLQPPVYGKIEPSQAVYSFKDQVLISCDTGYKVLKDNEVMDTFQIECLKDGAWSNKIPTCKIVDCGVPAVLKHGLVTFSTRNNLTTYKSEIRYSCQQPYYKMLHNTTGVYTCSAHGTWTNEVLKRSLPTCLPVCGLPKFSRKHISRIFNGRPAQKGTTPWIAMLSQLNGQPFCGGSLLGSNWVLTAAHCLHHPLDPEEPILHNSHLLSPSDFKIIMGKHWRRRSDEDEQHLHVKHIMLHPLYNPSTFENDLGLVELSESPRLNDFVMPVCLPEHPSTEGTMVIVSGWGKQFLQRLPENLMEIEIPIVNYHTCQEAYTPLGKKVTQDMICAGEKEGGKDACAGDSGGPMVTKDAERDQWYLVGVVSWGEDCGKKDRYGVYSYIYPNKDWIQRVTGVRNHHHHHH
# measurement description: cell-based or functional assay
Bridge positions count the residues as written; N and C are the ends. Square brackets hold non-standard residues; d marks the D form. Ends that are not written are not given here. Oic = O=C(O)[C@@H]1C[C@@H]2CCCC[C@@H]2N1; PEG6 = NCCOCCOCCOCCOCCOCCOCCC(=O)O; tBuAla = CC(C)(C)C[C@H](N)C(=O)O; Pen = CC(C)(S)[C@H](N)C(=O)O; PEG2 = NCCOCCOCCC(=O)O; Sar = CNCC(=O)O
attribute measured: rat MASP1 IC50 (nM)

INSERT INTO measurements (binder, unit_abbrev, numeric_value) VALUES
  ('[Sar]ICSRS[tBuAla]PPI[Pen]IP-{PEG2-NH2} (disulfide 3-11) [Example 207: ((N-Me)G)-IC+SRS-((tBu)A)-PPI-(Pen)+IP-(PEG1(10 atoms))-NH2]', 'nM', 43),
  ('[Sar]ICSRSLP[Oic]I[Pen]IPD[PEG6]-NH2 (disulfide 3-11; N-terminus assumed; SMILES CC[C@H](C)[C@H](NC(=O)CNC)C(=O)N[C@H]1CSSC(C)(C)[C@@H](C(=O)N[C@H](C(=O)N2CCC[C@H]2C(=O)N[C@@H](CC(=O)O)C(=O)NCCOCCOCCOCCOCCOCCOCCC(N)=O)[C@@H](C)CC)NC(=O)[C@H]([C@@H](C)CC)NC(=O)[C@@H]2C[C@@H]3CCCC[C@@H]3N2C(=O)[C@@H]2CCCN2C(=O)[C@H](CC(C)C)NC(=O)[C@H](CO)NC(=O)[C@H](CCCNC(=N)N)NC(=O)[C@H](CO)NC1=O) [Example 146: ((N-Me)G)-IC+SRSLP-(Oic)-I-(Pen)+IPD-(PEG5(22 atoms))-NH2]', 'nM', 110),
  ('[Sar]ICSRS[tBuAla]PPICIPD-OH (disulfide 3-11; N-terminus assumed; SMILES CC[C@H](C)[C@H](NC(=O)CNC)C(=O)N[C@H]1CSSC[C@@H](C(=O)N[C@H](C(=O)N2CCC[C@H]2C(=O)N[C@@H](CC(=O)O)C(=O)O)[C@@H](C)CC)NC(=O)[C@H]([C@@H](C)CC)NC(=O)[C@@H]2CCCN2C(=O)[C@@H]2CCCN2C(=O)[C@H](CC(C)(C)C)NC(=O)[C@H](CO)NC(=O)[C@H](CCCNC(=N)N)NC(=O)[C@H](CO)NC1=O) [Example 246: ((N-Me)G)-IC+SRS-((tBu)A)-PPIC+IPD-OH]', 'nM', 78);
